Source of measurements: PubChem BioAssay AID1919017

Entries and their measured viability, T/C follow.
# System: SW1271 complex spheroids with HUVEC/MSC, growth, % test/control
# Test Protocol: Anticancer human tumor SW1271 cell line growth inhibition [AhR];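 note: spheroids exposed to agents for 7 days before readout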
# Stated Conditions: second compound 1 µM; first compound 0.316 µM; hits give low values

{"Compound": "CC(C)c1c(-c2ccccc2)nc2c(C#N)c[nH]n2c1=O + Cc1cncc(-c2nc(NCCc3c[nH]c4ccccc34)c3ncn(C(C)C)c3n2)c1", "viability, T/C": "87.6%"}
{"Compound": "Nc1ccccc1NC(=O)c1ccc(CNC(=O)OCc2cccnc2)cc1 + Cc1ccccc1N=Nc1ccc(NC(=O)c2ccnn2C)c(C)c1", "viability, T/C": "90.7%"}
{"Compound": "Nc1ccccc1NC(=O)c1ccc(CNC(=O)OCc2cccnc2)cc1 + Cc1cncc(-c2nc(NCCc3c[nH]c4ccccc34)c3ncn(C(C)C)c3n2)c1", "viability, T/C": "88.9%"}
